Measured values drawn from ChEMBL document CHEMBL3991601 for this set.

Here's what we have: Kd numbers for Dual specificity protein kinase CLK4 (Homo sapiens, UniProt Q9HAZ1).
Calls of active or inactive are those of the source.

INSERT INTO assay_data (compound, measured_property, assay_result) VALUES
  ('CC[C@@H]1C(=O)N(C)c2cnc(Nc3ccc(C(=O)N[C@H]4CC[C@H](N5CCN(CC6CC6)CC5)CC4)cc3OC)nc2N1C(C)C', 'Kd', '> 30 µM (inactive)'),
  ('CN(C)C(=O)c1cc2cnc(Nc3ccc(N4CCNCC4)cn3)nc2n1C1CCCC1', 'Kd', '> 30 µM (inactive)');

Data request, read-out Kd, for `CCCS(=O)(=O)Nc1ccc(F)c(C(=O)c2c[nH]c3ncc(-c4ccc(Cl)cc4)cc23)c1F`
> 30 µM (inactive)

* * *

Study Target: Calcium/calmodulin-dependent protein kinase kinase 2 (Homo sapiens); also: in the data inactive means no Kd found up to 30 µM
Sequence (Q96RR4 whole entry): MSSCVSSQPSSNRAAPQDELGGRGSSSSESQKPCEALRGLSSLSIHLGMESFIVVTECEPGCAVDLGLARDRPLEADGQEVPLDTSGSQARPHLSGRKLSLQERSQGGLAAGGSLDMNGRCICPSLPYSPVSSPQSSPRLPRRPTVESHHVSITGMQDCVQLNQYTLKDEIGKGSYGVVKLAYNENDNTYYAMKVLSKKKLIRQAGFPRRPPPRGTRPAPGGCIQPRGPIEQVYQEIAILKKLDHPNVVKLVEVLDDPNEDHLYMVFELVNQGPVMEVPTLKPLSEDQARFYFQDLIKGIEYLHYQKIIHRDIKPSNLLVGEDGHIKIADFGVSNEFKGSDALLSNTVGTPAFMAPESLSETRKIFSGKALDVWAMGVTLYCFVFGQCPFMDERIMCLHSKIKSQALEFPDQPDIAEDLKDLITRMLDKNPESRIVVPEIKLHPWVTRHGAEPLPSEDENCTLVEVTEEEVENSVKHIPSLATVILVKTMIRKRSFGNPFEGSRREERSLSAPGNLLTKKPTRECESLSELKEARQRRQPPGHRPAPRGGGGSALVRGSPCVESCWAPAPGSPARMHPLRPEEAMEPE
Active and inactive are the calls of the source.
Entry note: the call must match one of Y (active), N (inactive)

Kindly provide the recorded test outcome for the following compound: CN1CCC(CNc2ccc3ncc(-c4cccc(OC(F)(F)F)c4)n3n2)CC1 [SGI-1776]
N

And C[C@@H](Nc1cc(F)cc(F)c1)c1cc(C(=O)N(C)C)cc2c(=O)cc(N3CCOCC3)oc12 [AZD-8186] ?
N

* * *

# Membrane-associated tyrosine- and threonine-specific cdc2-inhibitory kinase (Homo sapiens): Kd values follow; also: in the data inactive means no Kd found up to 30 µM
# Sequence (Q99640 whole entry): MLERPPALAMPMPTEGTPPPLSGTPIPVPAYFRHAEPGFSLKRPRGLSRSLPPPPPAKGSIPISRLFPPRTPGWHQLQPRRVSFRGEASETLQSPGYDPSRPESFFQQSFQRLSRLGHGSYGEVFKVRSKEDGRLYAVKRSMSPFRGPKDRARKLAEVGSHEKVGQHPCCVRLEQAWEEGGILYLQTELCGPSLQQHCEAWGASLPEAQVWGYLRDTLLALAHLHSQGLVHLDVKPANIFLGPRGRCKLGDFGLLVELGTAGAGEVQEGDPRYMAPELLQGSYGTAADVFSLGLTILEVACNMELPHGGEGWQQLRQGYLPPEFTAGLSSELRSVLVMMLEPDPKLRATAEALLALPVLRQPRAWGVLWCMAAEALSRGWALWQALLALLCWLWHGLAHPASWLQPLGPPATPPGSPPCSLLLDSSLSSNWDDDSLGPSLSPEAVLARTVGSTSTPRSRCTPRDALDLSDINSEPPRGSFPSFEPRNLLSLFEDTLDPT
Active and inactive are the calls of the source.

INSERT INTO measurements (compound, measured_property, assay_result) VALUES
  ('CO[C@H]1C[C@@H]2CC[C@@H](C)[C@@](O)(O2)C(=O)C(=O)N2CCCC[C@H]2C(=O)O[C@H]([C@H](C)C[C@@H]2CC[C@@H](OCCO)[C@H](OC)C2)CC(=O)[C@H](C)/C=C(\C)[C@@H](O)[C@@H](OC)C(=O)[C@H](C)C[C@H](C)/C=C/C=C/C=C/1C', 'Kd', '> 30 µM (inactive)'),
  ('CNC(=O)c1cc(Oc2ccc(NC(=O)Nc3ccc(Cl)c(C(F)(F)F)c3)c(F)c2)ccn1', 'Kd', '> 30 µM (inactive)');

Then there is this compound:
May I ask what Kd has been recorded for O=C(Nc1ccc(-c2ccnc(Nc3ccc(N4CCOCC4)cc3)n2)cc1)C1CCCN1 (stereo not drawn) ?
> 30 µM (inactive)

* * *

In this section we review reported Kd values for a set of compounds.
Target sequence: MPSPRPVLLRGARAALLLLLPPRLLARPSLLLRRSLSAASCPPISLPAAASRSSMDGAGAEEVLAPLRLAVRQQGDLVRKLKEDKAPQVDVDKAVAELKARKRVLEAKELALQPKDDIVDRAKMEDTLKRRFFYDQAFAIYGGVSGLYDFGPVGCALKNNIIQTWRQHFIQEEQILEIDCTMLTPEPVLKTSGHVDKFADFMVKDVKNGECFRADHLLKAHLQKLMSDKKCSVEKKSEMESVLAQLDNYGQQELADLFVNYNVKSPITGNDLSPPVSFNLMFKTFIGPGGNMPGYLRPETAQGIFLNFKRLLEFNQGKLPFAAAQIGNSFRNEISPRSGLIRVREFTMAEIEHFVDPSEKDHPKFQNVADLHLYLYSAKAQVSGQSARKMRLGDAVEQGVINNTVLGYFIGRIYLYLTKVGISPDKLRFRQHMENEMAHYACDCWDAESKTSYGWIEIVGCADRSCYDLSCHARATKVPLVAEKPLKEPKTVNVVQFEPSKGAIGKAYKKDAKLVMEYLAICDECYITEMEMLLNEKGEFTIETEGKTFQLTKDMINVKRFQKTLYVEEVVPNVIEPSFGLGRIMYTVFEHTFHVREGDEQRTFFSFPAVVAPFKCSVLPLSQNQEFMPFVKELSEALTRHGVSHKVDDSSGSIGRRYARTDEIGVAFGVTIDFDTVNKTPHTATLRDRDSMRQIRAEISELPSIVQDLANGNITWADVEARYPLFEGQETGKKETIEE
The source made the active and inactive calls.

Sample records with Kd:
INSERT INTO assay_data (compound, assay_result) VALUES
  ('O=C(c1ccc(F)c(F)c1Nc1ccc(I)cc1F)N1CC(O)([C@@H]2CCCCN2)C1', '> 30 µM (inactive)'),
  ('CCS(=O)(=O)N1CC(CC#N)(n2cc(-c3ncnc4[nH]ccc34)cn2)C1', '> 30 µM (inactive)'),
  ('CN1CCC(COc2cnc(-c3cccc(Cn4nc(-c5cccc(C#N)c5)ccc4=O)c3)nc2)CC1', '> 30 µM (inactive)');

Param item = `CC(C)Nc1cc(-c2c[nH]c(C(=O)N[C@H](CO)c3cccc(Cl)c3)c2)c(Cl)cn1` ; retrieve measured Kd.
> 30 µM (inactive)

* * *

Study Target: Serine/threonine-protein kinase ULK1 (Homo sapiens, UniProt O75385); also: in the data inactive means no Kd found up to 30 µM
Sequence (O75385 whole entry): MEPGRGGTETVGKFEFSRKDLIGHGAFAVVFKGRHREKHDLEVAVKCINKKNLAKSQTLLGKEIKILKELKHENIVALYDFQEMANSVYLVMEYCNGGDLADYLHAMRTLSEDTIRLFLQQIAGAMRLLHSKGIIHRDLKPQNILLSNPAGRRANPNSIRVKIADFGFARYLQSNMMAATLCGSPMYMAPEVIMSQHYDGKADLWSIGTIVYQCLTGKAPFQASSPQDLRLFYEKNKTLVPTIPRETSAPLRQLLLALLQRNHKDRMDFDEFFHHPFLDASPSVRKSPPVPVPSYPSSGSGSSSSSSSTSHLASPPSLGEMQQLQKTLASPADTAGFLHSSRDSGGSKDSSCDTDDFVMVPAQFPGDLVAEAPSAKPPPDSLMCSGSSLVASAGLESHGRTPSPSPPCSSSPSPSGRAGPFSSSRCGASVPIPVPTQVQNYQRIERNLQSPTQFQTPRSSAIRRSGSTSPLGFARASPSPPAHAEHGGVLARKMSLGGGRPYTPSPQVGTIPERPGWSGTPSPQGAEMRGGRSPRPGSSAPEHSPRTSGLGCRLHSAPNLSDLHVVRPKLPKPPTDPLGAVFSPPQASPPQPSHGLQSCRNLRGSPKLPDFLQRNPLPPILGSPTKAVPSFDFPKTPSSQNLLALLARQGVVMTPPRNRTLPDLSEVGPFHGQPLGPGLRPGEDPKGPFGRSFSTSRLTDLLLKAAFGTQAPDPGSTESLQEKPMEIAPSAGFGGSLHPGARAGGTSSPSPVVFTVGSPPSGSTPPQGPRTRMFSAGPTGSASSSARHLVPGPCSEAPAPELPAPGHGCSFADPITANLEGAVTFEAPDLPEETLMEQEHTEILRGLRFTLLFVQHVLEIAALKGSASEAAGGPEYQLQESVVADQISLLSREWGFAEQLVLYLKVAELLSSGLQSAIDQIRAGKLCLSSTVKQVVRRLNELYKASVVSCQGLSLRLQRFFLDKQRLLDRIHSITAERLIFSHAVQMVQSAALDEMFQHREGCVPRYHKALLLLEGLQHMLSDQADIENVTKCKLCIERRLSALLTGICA
Activity calls are given as the source filed them.
// classify into label 1 (active), label 0 (inactive)

INSERT INTO measurements (molecule, class_assignment) VALUES
  ('CCS(=O)(=O)N1CC(CC#N)(n2cc(-c3ncnc4[nH]ccc34)cn2)C1', 'label 1'),
  ('C[C@@H](Nc1cc(F)cc(F)c1)c1cc(C(=O)N(C)C)cc2c(=O)cc(N3CCOCC3)oc12', 'label 0'),
  ('COC(=O)[C@@]1(O)C[C@H]2O[C@]1(C)n1c3ccccc3c3c4c(c5c6ccccc6n2c5c31)C(=O)NC4 [K-252A]', 'label 0'),
  ('CC[C@@H]1C(=O)N(C)c2cnc(Nc3ccc(C(=O)N[C@H]4CC[C@H](N5CCN(CC6CC6)CC5)CC4)cc3OC)nc2N1C(C)C', 'label 0'),
  ('N[C@@H]1CCCN(c2c(/C=C3\SC(=O)NC3=O)cccc2-c2ccccc2)C1', 'label 0');

Given `COc1cc(OC)c(/C=C/S(=O)(=O)Cc2ccc(OC)c(NCC(=O)O)c2)c(OC)c1` , state the outcome it received in this test.
label 0

Now this one: `CO[C@H]1C[C@@H]2CC[C@@H](C)[C@@](O)(O2)C(=O)C(=O)N2CCCC[C@H]2C(=O)O[C@H]([C@H](C)C[C@@H]2CC[C@@H](OCCO)[C@H](OC)C2)CC(=O)[C@H](C)/C=C(\C)[C@@H](O)[C@@H](OC)C(=O)[C@H](C)C[C@H](C)/C=C/C=C/C=C/1C`
label 0

* * *

Study Target: Serine/threonine-protein kinase B-raf (Homo sapiens, UniProt P15056); also: in the data inactive means no Kd found up to 30 µM
Sequence (P15056 whole entry): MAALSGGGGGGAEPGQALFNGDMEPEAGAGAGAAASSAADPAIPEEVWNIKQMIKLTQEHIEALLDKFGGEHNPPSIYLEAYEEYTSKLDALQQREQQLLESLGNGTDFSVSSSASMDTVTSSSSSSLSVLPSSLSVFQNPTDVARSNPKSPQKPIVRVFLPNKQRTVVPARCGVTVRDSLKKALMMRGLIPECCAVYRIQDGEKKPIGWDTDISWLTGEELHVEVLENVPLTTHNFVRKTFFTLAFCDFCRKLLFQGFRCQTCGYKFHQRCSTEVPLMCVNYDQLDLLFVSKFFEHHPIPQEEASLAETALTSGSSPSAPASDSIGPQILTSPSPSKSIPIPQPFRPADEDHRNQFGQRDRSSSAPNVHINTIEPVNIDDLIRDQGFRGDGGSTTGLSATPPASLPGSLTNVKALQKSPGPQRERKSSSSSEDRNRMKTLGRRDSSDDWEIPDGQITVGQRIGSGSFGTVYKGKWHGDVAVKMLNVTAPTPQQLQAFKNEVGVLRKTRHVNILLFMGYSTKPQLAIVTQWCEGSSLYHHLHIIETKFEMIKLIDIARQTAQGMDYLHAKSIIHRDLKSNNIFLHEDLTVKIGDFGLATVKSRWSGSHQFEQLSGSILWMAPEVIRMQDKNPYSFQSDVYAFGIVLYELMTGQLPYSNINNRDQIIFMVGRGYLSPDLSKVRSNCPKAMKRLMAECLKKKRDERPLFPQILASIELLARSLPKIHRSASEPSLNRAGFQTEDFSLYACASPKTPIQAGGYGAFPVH
Calls of active or inactive are those of the source.
Your reply should match one of these outcome classes. T (active), F (inactive)

INSERT INTO results (molecule, study_target, class_assignment) VALUES
  ('Cc1c(F)cc(C(=O)NC2CC2)cc1-c1ccc(C(=O)NCC(C)(C)C)cn1 [LOSMAPIMOD]', 'Serine/threonine-protein kinase B-raf (Homo sapiens, UniProt P15056)', 'F');

# fetch the recorded call for CCS(=O)(=O)N1CC(CC#N)(n2cc(-c3ncnc4[nH]ccc34)cn2)C1 [BARICITINIB] here
F

Would you kindly repeat that for CC[C@H](Nc1ncnc2[nH]cnc12)c1nc2cccc(F)c2c(=O)n1-c1ccccc1 [IDELALISIB] ?
F

Okay, and `Cc1cc(-c2cc(O)ccc2Cl)cc2nnc(Nc3ccc(OCCN4CCCC4)cc3)nc12` ?
T

* * *

Study Target: Deoxycytidine kinase (Homo sapiens, UniProt P27707); also: in the data inactive means no Kd found up to 30 µM
Sequence (P27707 whole entry): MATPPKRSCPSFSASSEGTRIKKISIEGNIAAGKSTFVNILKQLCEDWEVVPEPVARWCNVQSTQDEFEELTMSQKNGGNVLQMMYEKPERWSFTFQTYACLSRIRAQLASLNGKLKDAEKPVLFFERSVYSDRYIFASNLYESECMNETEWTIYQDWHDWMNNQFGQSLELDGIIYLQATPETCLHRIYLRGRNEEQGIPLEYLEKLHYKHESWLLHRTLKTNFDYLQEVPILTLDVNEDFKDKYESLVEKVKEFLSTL
Calls of active or inactive are those of the source.
Outcome field: choose from y (active), n (inactive)

Here are 8 molecules together with their reported answers.
INSERT INTO measurements (molecule, class_assignment) VALUES
  ('CCN1CCN(Cc2ccc(-c3cc4c(N[C@H](C)c5ccccc5)ncnc4[nH]3)cc2)CC1', 'n'),
  ('Nc1nc(N)c2nc(-c3cccc(O)c3)c(-c3cccc(O)c3)nc2n1', 'y'),
  ('O=c1sn(-c2cccc3ccccc23)c(=O)n1Cc1ccccc1', 'n'),
  ('Cn1cc(-c2ccc3nnc(C(F)(F)c4ccc5ncccc5c4)n3n2)cn1', 'n'),
  ('CCCS(=O)(=O)Nc1ccc(F)c(C(=O)c2c[nH]c3ncc(-c4ccc(Cl)cc4)cc23)c1F', 'n'),
  ('Cc1c(F)cc(C(=O)NC2CC2)cc1-c1ccc(C(=O)NCC(C)(C)C)cn1', 'n'),
  ('Cn1cc(-c2ccc(F)c(C(F)(F)F)c2)nc1C1CCN(c2ncnc3[nH]ncc23)CC1', 'n'),
  ('CN1N=C(N)c2cn([C@@H]3O[C@H](COP(=O)(O)O)[C@@H](O)[C@H]3O)c3ncnc1c23 [TRICIRIBINE PHOSPHATE]', 'n');

For this molecule, state the assay outcome: `C[C@@H](Nc1cc(F)cc(F)c1)c1cc(C(=O)N(C)C)cc2c(=O)cc(N3CCOCC3)oc12`
n

Another: `CC[C@H](Nc1ncnc2[nH]cnc12)c1nc2cccc(F)c2c(=O)n1-c1ccccc1`
n

Now this one: `CO[C@H]1C[C@@H]2CC[C@@H](C)[C@@](O)(O2)C(=O)C(=O)N2CCCC[C@H]2C(=O)O[C@H]([C@H](C)C[C@@H]2CC[C@@H](OCCO)[C@H](OC)C2)CC(=O)[C@H](C)/C=C(\C)[C@@H](O)[C@@H](OC)C(=O)[C@H](C)C[C@H](C)/C=C/C=C/C=C/1C`
n

// same read-out, input: `Cn1ncc(Cl)c1-c1cc(C(=O)N[C@H](CN)Cc2cccc(F)c2)sc1Cl`
n

Now this one: `Cc1ccc(NC(=O)c2ccc(CN3CC[C@H](N(C)C)C3)c(C(F)(F)F)c2)cc1Nc1nccc(-c2cncnc2)n1`
n
